molecular target: cynomolgus PAI-1 (cynomolgus, UniProt P05121 24-402 (human entry), limits assumed); test: cell-based or functional assay
Overview of recorded IC50 ratio cyno/human for various binders
Answer with a bare number; do not write a unit.

binder="Antibody 05, scFv (scFv, V domains shown) VH: QVQLQQSGAEVKKPGSSVKVSCKASGGTFSSYAISWVRQAPGQGLEWMGGIIPTFSTANYAQKFRGRVTITADESTSTAYMELSGLRSEDTAVYYCAREKRQWLEGHFDYWGRGTPVTVSS VL: DIQMTQSPSFLSASIGDRVTITCRASEGIYHQLAWYQQKPGKAPKLLIYRASSLASGAPSRFSGSGSGTDFTLTISSLQPDDFATYYCQQYSNYPLTFGGGTKLEIK" value_observed=0.1

We next turn to a different binder, shown below.
Specify reported IC50 ratio cyno/human for the binder shown: Antibody 12, scFv (scFv, V domains shown) VH: QVQLQQSGAEVKKPGSSVKVSCKASGGTFSSYAISWVRQAPGQGLEWMGGIIPTFPTANYAQKFQGRVTITADESTSTAYMELSGLRSEDTAVYYCAREKRQWLEGHFDYWGRGTPVTVSS VL: DIQMTQSPSFLSASIGDRVTITCRASEGIYHNLAWYQQKPGKAPKLLIYRASSLASGAPSRFSGSGSGTDFTLTISSLQPDDFATYYCQQYSNYPLTFGGGTKLEIK
0.3
